All values here come from patent US20230285405A1.

System: A549-mRuby cells
procedureText: Drug screening: effect on cell growth (cell number day 4 / day 0)
recordedConditions: 10 μM drug, repeat #1
Method: A549-mRuby cells were seeded (3,000 cells per well) in nine 384-well plates using Multidrop combi. Cells were seeded in a final volume of 30 μl with DMEM+10% BCS. The following day, 20 μl of OC43 were added (MOI 0.3) and incubated at 33° C., 5% CO2 for 1 hour. 50 nl from the Selleck FDA-approved drug library (cat #L1300, Selleck) were added (1:1,000 dilution). Two columns (32 wells) were left uninfected and two columns were treated with DMSO and virus (no drug control). […]
Where a name gives a salt, the structure may show the parent alone.
observationType: Growth_1: number of cells at day 4 divided by number of cells at day 0

molecule | recordedResult
CCCOC(C(=O)OC1CCN(C)CC1)(c1ccccc1)c1ccccc1 [Propiverine hydrochloride] | 3.0

## Input Which Growth_1: number of cells at day 4 divided by number of cells at day 0 value belongs to CC(C)(C)c1nc(-c2cccc(NS(=O)(=O)c3c(F)cccc3F)c2F)c(-c2ccnc(N)n2)s1 ?
## Output 3.9

## Input Which Growth_1: number of cells at day 4 divided by number of cells at day 0 value belongs to COc1cc2c(Oc3ccc4[nH]c(C)cc4c3F)ncnc2cc1OCCCN1CCCC1 ?
## Output 2.6

## Input Which Growth_1: number of cells at day 4 divided by number of cells at day 0 value belongs to CCCCc1oc2ccccc2c1C(=O)c1cc(I)c(OCCN(CC)CC)c(I)c1 [Amiodarone HCl] ?
## Output 4.6

###

System: A549-mRuby cells
procedureText: Drug screening: effect on cell growth (cell number day 4 / day 0)
recordedConditions: 10 μM drug, repeat #1
Counter-ions that a name gives are not always drawn.
Listed here: items and their measured toxic_1.
Provide a numeric answer; units are not to be included.

molecule | toxic_1
CCN(CC)CCCC(C)Nc1ccnc2cc(Cl)ccc12 (stereo not drawn) [Chloroquine Phosphate] | 0
CCN(CCCc1ccccc1)CCCc1ccccc1 [Alverine Citrate] | 0

## Input Which toxic_1 value belongs to CC[C@H]1OC(=O)[C@H](C)[C@@H](O[C@H]2C[C@@](C)(OC)[C@@H](O)[C@H](C)O2)[C@H](C)[C@@H](O[C@@H]2O[C@H](C)C[C@H](N(C)C)[C@H]2O)[C@](C)(O)C[C@@H](C)CN(C)[C@H](C)[C@@H](O)[C@]1(C)O [Azithromycin Dihydrate] ?
## Output 0

###

System: OC43
procedureText: Drug screening: OC43 nucleoprotein staining in infected A549-mRuby cells
Assay type: cell-based, human beta coronavirus OC43
recordedConditions: Betacoronavirus 1, OC43, 96 h, 10 μM drug, MOI 0.3, 4 days; normalized to no-drug controls in the same plate; repeat #2; read-out: OC43_2: % staining of OC43 in screen repeat #2
Where a name gives a salt, the structure may show the parent alone.
observationType: activity at 10 µM (%)
Unit % implied. Number only.

molecule | recordedResult
C=C[C@H]1C[N@@]2CC[C@H]1C[C@@H]2[C@@H](O)c1ccnc2ccc(OC)cc12 [Quinidine sulfate] | 47.9
CN1[C@@H]2CC[C@H]1C[C@@H](OC(=O)c1c[nH]c3ccccc13)C2 [Tropisetron HCl] | 63.4
CS(=O)(=O)CCNCc1ccc(-c2ccc3ncnc(Nc4ccc(OCc5cccc(F)c5)c(Cl)c4)c3c2)o1 [Lapatinib ditosylate monohydrate] | 9.5
CCCCOC(=O)c1ccc(O)cc1 [Butylparaben] | 3.5
N=C(N)N/N=C/c1c(Cl)cccc1Cl [Guanabenz Acetate] | 38.1
CN1C2CCC1CC(OC(c1ccccc1)c1ccccc1)C2.CS(=O)(=O)O (centres unmarked) [Benztropine mesylate] | 12.8
CCN(CCO)CCCC(C)Nc1ccnc2cc(Cl)ccc12 (centres unmarked) [Hydroxychloroquine Sulfate] | 14.6

Let's switch to this molecule now.
## Input Which activity at 10 µM value belongs to CCCC1O[C@@H]2C[C@H]3[C@@H]4CCC5=CC(=O)C=C[C@]5(C)[C@H]4[C@@H](O)C[C@]3(C)[C@]2(C(=O)CO)O1 (some centres unmarked) [Budesonide] ?
## Output 36.9

###

Tested on: A549-mRuby cells
procedureText: Drug screening: effect on cell growth (cell number day 4 / day 0)
recordedConditions: 10 μM drug, repeat #2
Structures can show the parent of a compound that is named as a salt.
observationType: Growth_2: number of cells at day 4 divided by number of cells at day 0
Provide a numeric answer; units are not to be included.

Solved entries:
molecule | recordedResult
CC[C@H]1OC(=O)[C@H](C)[C@@H](O[C@H]2C[C@@](C)(OC)[C@@H](O)[C@H](C)O2)[C@H](C)[C@@H](O[C@@H]2O[C@H](C)C[C@H](N(C)C)[C@H]2O)[C@](C)(O)C[C@@H](C)C(=O)[C@H](C)[C@@H](O)[C@]1(C)O.N#CS [Erythromycin thiocyanate] | 4.6
CS(=O)(=O)CCNCc1ccc(-c2ccc3ncnc(Nc4ccc(OCc5cccc(F)c5)c(Cl)c4)c3c2)o1 [Lapatinib] | 4.4

Let's switch to this molecule now.
## Input Which Growth_2: number of cells at day 4 divided by number of cells at day 0 value belongs to CCN(CCO)CCCC(C)Nc1ccnc2cc(Cl)ccc12 (stereo not drawn) [Hydroxychloroquine Sulfate] ?
## Output 4.9

###

Listed here: items and their measured Growth_2: number of cells at day 4 divided by number of cells at day 0.
Tested on: A549-mRuby cells
procedureText: Drug screening: effect on cell growth (cell number day 4 / day 0)
recordedConditions: 10 μM drug, repeat #2
Structures can show the parent of a compound that is named as a salt.
Provide a numeric answer; units are not to be included.

## Input Which Growth_2: number of cells at day 4 divided by number of cells at day 0 value belongs to COc1ccccc1OCCNCC(O)COc1cccc2[nH]c3ccccc3c12 (centres unmarked) ?
## Output 3.1

## Input Which Growth_2: number of cells at day 4 divided by number of cells at day 0 value belongs to CC(CN1c2ccccc2Sc2ccccc21)N(C)C (centres unmarked) [Promethazine HCl] ?
## Output 2.4

## Input Which Growth_2: number of cells at day 4 divided by number of cells at day 0 value belongs to CC(C)(C)c1nc(-c2cccc(NS(=O)(=O)c3c(F)cccc3F)c2F)c(-c2ccnc(N)n2)s1 ?
## Output 5.5

## Input Which Growth_2: number of cells at day 4 divided by number of cells at day 0 value belongs to OCCOCCN1CCN(C2=Nc3ccccc3Sc3ccccc32)CC1 [Quetiapine Fumarate] ?
## Output 3.7

## Input Which Growth_2: number of cells at day 4 divided by number of cells at day 0 value belongs to NC(=O)C(c1ccccc1)(c1ccccc1)[C@@H]1CCN(CCc2ccc3c(c2)CCO3)C1 ?
## Output 3.4

## Input Which Growth_2: number of cells at day 4 divided by number of cells at day 0 value belongs to COc1ccc2cc1Oc1ccc(cc1)C[C@H]1c3c(cc4c(c3Oc3cc5c(cc3OC)CCN(C)[C@@H]5C2)OCO4)CCN1C ?
## Output 4.7

## Input Which Growth_2: number of cells at day 4 divided by number of cells at day 0 value belongs to CN(C)CCC=C1c2ccccc2COc2ccccc21 [Doxepin HCl] ?
## Output 5.7

## Input Which Growth_2: number of cells at day 4 divided by number of cells at day 0 value belongs to COC(=O)N[C@H](C(=O)N1CCC[C@H]1c1ncc(-c2ccc3c(c2)O[C@@H](c2ccccc2)n2c-3cc3cc(-c4cnc([C@@H]5CCCN5C(=O)[C@@H](NC(=O)OC)C(C)C)[nH]4)ccc32)[nH]1)C(C)C ?
## Output 5.3

## Input Which Growth_2: number of cells at day 4 divided by number of cells at day 0 value belongs to CCCNCC(O)COc1ccccc1C(=O)CCc1ccccc1.O (centres unmarked) [Propafenone HCl] ?
## Output 3.4

###

Listed here: items and their measured toxic_2.
Test system: A549-mRuby cells
procedureText: Drug screening: effect on cell growth (cell number day 4 / day 0)
recordedConditions: 10 μM drug, repeat #2
Where a name gives a salt, the structure may show the parent alone.
Provide a numeric answer; units are not to be included.

compound | toxic_2
COc1cc2nc(N3CCN(C(=O)C4COc5ccccc5O4)CC3)nc(N)c2cc1OC (stereo not drawn) [Doxazosin Mesylate] | 0
C[C@@H]1CCN(C(=O)CC#N)C[C@@H]1N(C)c1ncnc2[nH]ccc12.O=C(O)CC(O)(CC(=O)O)C(=O)O [Tofacitinib (CP-690550) Citrate] | 0

Let's switch to this compound now.
## Input # returns recorded toxic_2 (system: A549-mRuby cells) for CC[C@H]1OC(=O)[C@H](C)[C@@H](O[C@H]2C[C@@](C)(OC)[C@@H](O)[C@H](C)O2)[C@H](C)[C@@H](O[C@@H]2O[C@H](C)C[C@H](N(C)C)[C@H]2O)[C@](C)(O)C[C@@H](C)/C(=N\OCOCCOC)[C@H](C)[C@@H](O)[C@]1(C)O
## Output 0
